System: L1210 leukemia ip in BDF1 mice, survival T/C
measurement_protocol: NCI In Vivo Anticancer Drug Screen. Data for tumor model L1210 Leukemia (intraperitoneal) in B6D2F1 (BDF1) mice
experimental_context: endpoint: mean survival time; dose: 400.0 mg/kg/injection; schedule: Q04DX003 (ip); vehicle: Klucel (hydroxypropylcellulose) (HPC); higher = longer survival
Toxic doses and inconclusive results are not listed.
Assignment: determine reported T/C for the given compounds.

| compound | T/C |
| --- | --- |
| Cc1cc(N(CCCl)CCCl)ccc1CN1CCCN(Cc2ccc(N(CCCl)CCCl)cc2C)C1c1ccccc1O | 122 % of control |
| CN(CCc1ccccc1)/N=N/c1[nH]ncc1C(N)=O | 100 % of control |
| O=c1n(-c2ccccc2)c(=O)n(-c2ccccc2)c(=O)n1-c1ccccc1 | 104 % of control |
| Nc1cc(Nc2ccc(S(N)(=O)=O)cc2)nc(N)n1 | 93 % of control |
| NC(=O)NOCC1NC(=O)C(CONC(N)=O)NC1=O (stereo unspecified) | 95 % of control |

Would you mind telling me what T/C value was observed for CC(=O)Nc1cc2c(cc1Cl)-c1ccccc1C2Br (stereo unspecified) ?
96 % of control
